assay: Half life in C57BL/6J mouse at 800 nmol/kg, sc measured up to 24 hrs by LC-MS/MS analysis; assay type: ADME, organism-based; conditions: in vivo
measure name: half-life (min)
Numbers only, in min.

*Q* Recorded half-life for "H-HGDGSFTSELSTYLDALAARDFIAWLIQTKITD-NH2" , please?
*A* 54

* * *

experiment: Half life in human; format: ADME
measure name: half-life (h)
One number for each entry, in h.

*Q* For the substance "H-HGEGTFSSELATILDALAARDFIAWLIATKITDKKKKKK-NH2" , what half-life is on record?
*A* 50

* * *

molecular target: Glucagon-like peptide 2 receptor (Homo sapiens, UniProt O95838); experiment: Agonist activity at human GLP-2 receptor expressed in CHO-K1 cells assessed as cAMP induction by FRET assay; format: functional, cell-based
Sequence (O95838 whole entry): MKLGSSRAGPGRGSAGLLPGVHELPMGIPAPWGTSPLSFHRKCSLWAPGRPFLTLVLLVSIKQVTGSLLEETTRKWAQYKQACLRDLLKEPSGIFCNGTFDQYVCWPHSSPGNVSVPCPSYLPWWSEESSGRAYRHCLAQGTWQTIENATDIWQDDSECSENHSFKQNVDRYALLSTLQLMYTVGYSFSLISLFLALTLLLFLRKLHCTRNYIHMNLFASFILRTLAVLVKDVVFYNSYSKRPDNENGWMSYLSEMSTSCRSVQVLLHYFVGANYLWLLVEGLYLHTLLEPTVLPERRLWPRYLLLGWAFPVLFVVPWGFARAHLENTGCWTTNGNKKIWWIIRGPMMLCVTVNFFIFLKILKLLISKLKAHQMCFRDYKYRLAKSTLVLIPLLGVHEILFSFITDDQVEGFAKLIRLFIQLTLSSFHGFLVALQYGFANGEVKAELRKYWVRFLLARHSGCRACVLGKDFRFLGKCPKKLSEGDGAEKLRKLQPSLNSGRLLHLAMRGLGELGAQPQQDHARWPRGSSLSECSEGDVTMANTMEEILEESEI
measure name: EC50
Could you give the number and then its unit, please?

*Q* Recorded EC50 of "H-HGDGSFTSELSTYLDALAARDFIAWLIQTKITD-NH2" , please.
*A* 0.09 nM

* * *

target: Glucagon-like peptide 1 receptor (Homo sapiens); experiment: Agonist activity at human GLP-1 receptor expressed in CHO-K1 cells assessed as cAMP induction by FRET assay; format: functional, cell-based
Sequence (P43220 whole entry): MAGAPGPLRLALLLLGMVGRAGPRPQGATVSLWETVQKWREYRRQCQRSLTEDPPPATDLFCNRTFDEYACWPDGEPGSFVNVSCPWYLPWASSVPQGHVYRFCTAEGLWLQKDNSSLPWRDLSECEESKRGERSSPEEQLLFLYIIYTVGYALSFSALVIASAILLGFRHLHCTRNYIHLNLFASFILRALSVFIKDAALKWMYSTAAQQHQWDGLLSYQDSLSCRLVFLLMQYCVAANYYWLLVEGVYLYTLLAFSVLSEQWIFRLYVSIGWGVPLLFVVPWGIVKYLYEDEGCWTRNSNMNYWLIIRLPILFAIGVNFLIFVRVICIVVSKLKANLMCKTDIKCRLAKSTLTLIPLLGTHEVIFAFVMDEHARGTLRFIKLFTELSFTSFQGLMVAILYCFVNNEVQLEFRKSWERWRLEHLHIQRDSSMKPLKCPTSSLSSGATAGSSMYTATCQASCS
measure name: pEC50
Numbers only, as −log10 of the molar value.

*Q* So what's the measured pEC50 for this one? "H-HGDGSFTSELSTYLDALAARDFIAWLIQTKITD-NH2"
*A* 10.15
